Value source: patent US20240317696A1

# Tested on: sGC (Homo sapiens (Human))
# Assay summary: cGMP expression test based on LNCap cells (sGC stimulatory activity)
# Condition info: cGMP production in LNCap cells; ODQ present
Observed property: pEC50
Here pEC50 is given on a logarithmic scale as minus log10 of the concentration in mol/L.

Ask | Return value of pEC50 for input C[C@H]([C@H](C(=O)Nc1cc([C@@H](CC(=O)O)C2CCCC2)ccc1Cl)c1ccc(Cl)cc1)C(F)(F)F [WX002] , no commentary.
Reply | 8.75

Ask | Return value of pEC50 for input C[C@H]([C@H](C(=O)Nc1cc(C(CC(=O)O)C23CC(F)(C2)C3)ccc1F)c1ccc(Cl)cc1)C(F)(F)F (stereo partly drawn) [WX007] , no commentary.
Reply | 8.48

Ask | Return value of pEC50 for input C[C@H]([C@H](C(=O)Nc1cc(C(CC(=O)O)C2CCCC2)ccc1Cl)c1ccc(Cl)cc1)C(F)(F)F (stereo partly drawn) [WX001] , no commentary.
Reply | 8.18

---

For each of the compounds below, state its log10(MEC).
# Tested on: sGC (Homo sapiens (Human), UniProt Q02153)
# Sequence (Q02153 whole entry): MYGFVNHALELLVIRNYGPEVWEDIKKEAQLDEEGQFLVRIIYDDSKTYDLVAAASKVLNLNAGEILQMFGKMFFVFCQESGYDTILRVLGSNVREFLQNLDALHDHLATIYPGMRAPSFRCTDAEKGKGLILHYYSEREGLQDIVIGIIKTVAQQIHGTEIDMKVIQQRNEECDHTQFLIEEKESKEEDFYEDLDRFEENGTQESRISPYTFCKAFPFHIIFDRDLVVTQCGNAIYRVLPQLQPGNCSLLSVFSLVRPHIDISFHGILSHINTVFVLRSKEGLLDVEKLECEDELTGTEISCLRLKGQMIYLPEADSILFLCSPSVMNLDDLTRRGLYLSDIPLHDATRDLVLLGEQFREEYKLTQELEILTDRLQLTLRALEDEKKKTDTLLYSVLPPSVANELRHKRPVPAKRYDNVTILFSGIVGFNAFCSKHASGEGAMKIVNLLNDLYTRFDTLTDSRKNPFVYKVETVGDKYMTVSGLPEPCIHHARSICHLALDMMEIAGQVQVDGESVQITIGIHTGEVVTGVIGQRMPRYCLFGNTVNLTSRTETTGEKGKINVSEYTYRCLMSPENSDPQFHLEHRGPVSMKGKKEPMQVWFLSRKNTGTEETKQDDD
# Sequence (Q02108 whole entry partner): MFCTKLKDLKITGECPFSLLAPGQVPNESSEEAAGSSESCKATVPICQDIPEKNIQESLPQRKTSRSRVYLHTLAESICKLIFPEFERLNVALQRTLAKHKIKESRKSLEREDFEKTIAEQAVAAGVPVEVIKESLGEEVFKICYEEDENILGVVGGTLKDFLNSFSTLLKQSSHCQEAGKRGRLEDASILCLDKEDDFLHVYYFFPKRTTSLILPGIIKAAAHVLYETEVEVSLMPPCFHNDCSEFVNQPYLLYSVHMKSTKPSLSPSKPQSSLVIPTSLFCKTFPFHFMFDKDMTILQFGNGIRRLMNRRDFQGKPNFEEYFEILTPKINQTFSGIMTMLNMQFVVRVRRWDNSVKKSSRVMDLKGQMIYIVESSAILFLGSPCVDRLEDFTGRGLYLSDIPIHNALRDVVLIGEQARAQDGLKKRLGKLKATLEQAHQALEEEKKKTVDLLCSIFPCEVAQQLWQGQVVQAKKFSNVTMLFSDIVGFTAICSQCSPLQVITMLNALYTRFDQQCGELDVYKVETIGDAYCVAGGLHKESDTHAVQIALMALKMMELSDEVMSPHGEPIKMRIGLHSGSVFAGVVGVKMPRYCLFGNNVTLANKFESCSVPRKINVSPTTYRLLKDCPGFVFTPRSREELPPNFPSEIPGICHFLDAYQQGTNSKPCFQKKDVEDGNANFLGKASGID
# Assay summary: cGMP expression test based on LNCap cells (sGC stimulatory activity)
# Assay type: cell-based
# Condition info: Minimum effective concentration required to stimulate cGMP production in LNCap cells (greater than three times the baseline value); ODQ present
The figures below represent log10 of MEC, where MEC is stated in nM.

Ask | Return value of log10(MEC) for input C[C@H]([C@H](C(=O)Nc1cc([C@@H](CC(=O)O)C23CC(F)(C2)C3)ccc1Cl)c1ccc(Cl)cc1)C(F)(F)F , no commentary.
Reply | -0.57

Ask | Return value of log10(MEC) for input C[C@H]([C@H](C(=O)Nc1cc(C(CC(=O)O)C2CCCC2)ccc1Cl)c1ccc(Cl)cc1)C(F)(F)F (stereo partly drawn) , no commentary.
Reply | 0.62

Ask | Return value of log10(MEC) for input C[C@H]([C@H](C(=O)Nc1cc(C(CC(=O)O)C23CC(F)(C2)C3)ccc1F)c1ccc(Cl)cc1)C(F)(F)F (stereo partly drawn) , no commentary.
Reply | -0.19

Ask | Return value of log10(MEC) for input C[C@H]([C@H](C(=O)Nc1cc([C@@H](CC(=O)O)[C@H]2CCCO2)ccc1Cl)c1ccc(Cl)cc1)C(F)(F)F , no commentary.
Reply | 1.44

Ask | Return value of log10(MEC) for input COC12CC(C(CC(=O)O)c3ccc(Cl)c(NC(=O)[C@H](c4ccc(Cl)cc4)[C@@H](C)C(F)(F)F)c3)(C1)C2 (stereo partly drawn) , no commentary.
Reply | 0.09

Ask | Return value of log10(MEC) for input C[C@H]([C@H](C(=O)Nc1cc(C(CC(=O)O)C23CC(F)(C2)C3)ccc1Cl)c1ccc(Cl)cc1)C(F)(F)F (stereo partly drawn) , no commentary.
Reply | -0.21

---

For each of the molecules below, state its MEC.
# Tested on: sGC (Homo sapiens (Human))
# Assay summary: cGMP expression test based on LNCap cells (sGC stimulatory activity)
# Format: cell-based
# Condition info: Minimum effective concentration required to stimulate cGMP production in LNCap cells (greater than three times the baseline value); ODQ present
Mention the unit after the number when you answer.

Ask | Return value of MEC for input COC12CC([C@H](CC(=O)O)c3ccc(Cl)c(NC(=O)[C@H](c4ccc(Cl)cc4)[C@@H](C)C(F)(F)F)c3)(C1)C2 , no commentary.
Reply | 0.42 nM

Ask | Return value of MEC for input C[C@H]([C@H](C(=O)Nc1cc([C@@H](CC(=O)O)C2CCCC2)ccc1Cl)c1ccc(Cl)cc1)C(F)(F)F , no commentary.
Reply | 2.20 nM

Ask | Return value of MEC for input Cc1ccc([C@@H](CC(=O)O)C23CC(F)(C2)C3)cc1NC(=O)[C@H](c1ccc(Cl)cc1)[C@@H](C)C(F)(F)F , no commentary.
Reply | 1.39 nM

Ask | Return value of MEC for input Cc1ccc(C(CC(=O)O)C23CC(F)(C2)C3)cc1NC(=O)C(c1ccc(Cl)cc1)[C@@H](C)C(F)(F)F (stereo partly shown) , no commentary.
Reply | 1.76 nM
